Item-by-item account of minimum gelling concentration
Assay: Gelling ability of basic amino acid derivatives (test tube tilting, visual appearance)
Assay type: physicochemical
Conditions: 0.1M aqueous KCl solution; heated to 100° C., stood at 25° C. for 2 hr

{"Compound": "CCCCCCCCCCCC(=O)NCCCC[C@H](NC(=O)CCCCCCC(=O)[O-])C(=O)O.[Na+]", "Units Text": "g/L", "minimum gelling concentration": 30}
{"Compound": "CCCCCCCCCCCC(=O)NCCCC[C@H](NC(=O)CC(CCCCCCCCCC)C(=O)[O-])C(=O)OCC.[K+] (stereo partly drawn)", "Units Text": "g/L", "minimum gelling concentration": 10}
{"Compound": "CCCCCCCCCCCC(=O)NCCCC[C@H](NC(=O)CCCCCCCCC(=O)[O-])C(=O)O.[K+]", "Units Text": "g/L", "minimum gelling concentration": 4}

====

Test: Gelling ability of basic amino acid derivatives (test tube tilting, visual appearance)
Type: physicochemical
Set-up: key: GT: transparent gel; GTL: translucent gel; GO: opaque gel
Conditions: 1.0M aqueous KCl solution; heated to 100° C., stood at 25° C. for 2 hr

{"Compound": "CCCCCCCCCCCC(=O)NCCCC[C@H](NC(=O)CCCCCCCCC(=O)[O-])C(=O)O.[K+] [Production Example 10]", "gel appearance": "GT"}
{"Compound": "CCCCCCCCCCCC(=O)NCCCC[C@H](NC(=O)CCCCCCCCC(=O)[O-])C(=O)O.[Na+] [Production Example 9]", "gel appearance": "GT"}
{"Compound": "CCCCCCCCCCCC(=O)NCCCC[C@H](NC(=O)CC(CCCCCCCCCC)C(=O)[O-])C(=O)O.[K+] (some centres unmarked) [Production Example 4]", "gel appearance": "GO"}
{"Compound": "CCCCCCCCCCCC(=O)NCCCC[C@H](NC(=O)CCCCCCC(=O)[O-])C(=O)O.[Na+] [Production Example 7]", "gel appearance": "GT"}
{"Compound": "CCCCCCCCCCCC(=O)NCCCC[C@H](NC(=O)CC(CCCCCCCCCC)C(=O)[O-])C(=O)O.[Na+] (some centres unmarked) [Production Example 3]", "gel appearance": "GO"}

====

Assay: Gelling ability of basic amino acid derivatives (test tube tilting, visual appearance)
Assay type: physicochemical
Conditions: 1.0M aqueous KCl solution; heated to 100° C., stood at 25° C. for 2 hr
minimum gelling concentration overview

{"Compound": "CCCCCCCCCCCC(=O)NCCCC[C@H](NC(=O)CC(CCCCCCCCCC)C(=O)[O-])C(=O)O.[Na+] (some centres unmarked) [Production Example 3]", "minimum gelling concentration, g/L": 20}
{"Compound": "CCCCCCCCCCCC(=O)NCCCC[C@H](NC(=O)CC(CCCCCCCCCC)C(=O)[O-])C(=O)O.[K+] (some centres unmarked) [Production Example 4]", "minimum gelling concentration, g/L": 20}
{"Compound": "CCCCCCCCCCCC(=O)NCCCC[C@H](NC(=O)CCCCCCCCC(=O)[O-])C(=O)O.[K+] [Production Example 10]", "minimum gelling concentration, g/L": 4}
{"Compound": "CCCCCCCCCCCC(=O)NCCCC[C@H](NC(=O)CCCCCCC(=O)[O-])C(=O)O.[Na+] [Production Example 7]", "minimum gelling concentration, g/L": 4}
{"Compound": "CCCCCCCCCCCC(=O)NCCCC[C@H](NC(=O)CCCCCCCCC(=O)[O-])C(=O)O.[Na+] [Production Example 9]", "minimum gelling concentration, g/L": 4}

These entries and their values trace back to patent US9198846B2.
